FYI, the data here is from patent US10577363B2.

SYSTEM: SMYD3 (Homo sapiens (Human), UniProt Q9H7B4)
Sequence (Q9H7B4 whole entry): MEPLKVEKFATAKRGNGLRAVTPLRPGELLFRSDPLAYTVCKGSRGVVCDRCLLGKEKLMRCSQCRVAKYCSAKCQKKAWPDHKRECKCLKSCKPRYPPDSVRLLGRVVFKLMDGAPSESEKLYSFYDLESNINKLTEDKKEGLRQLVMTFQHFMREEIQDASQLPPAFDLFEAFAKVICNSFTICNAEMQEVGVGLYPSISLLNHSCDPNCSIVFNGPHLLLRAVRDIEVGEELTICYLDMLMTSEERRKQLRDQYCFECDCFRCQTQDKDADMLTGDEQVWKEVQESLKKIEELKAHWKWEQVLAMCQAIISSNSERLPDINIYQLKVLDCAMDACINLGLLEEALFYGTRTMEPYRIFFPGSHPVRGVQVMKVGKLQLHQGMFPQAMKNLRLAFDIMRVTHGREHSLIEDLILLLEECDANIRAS
ASSAY_PROCEDURE: SMYD3 cell assay (Trimethyl-MEKK2 In-Cell Western in 293T/17 cells)
Type: cell-based
RUN_PARAMETERS: average of n = 1 to n = 50; read-out: SMYD3 Cell IC50
READOUT_KIND: pIC50
Would you please state pIC50, meaning minus log10 of the concentration in mol/L, as a bare number?

Below, 7 compounds whose answers are already recorded.
C[C@@H]1C[C@H](NC(=O)c2cc(C3CC3)on2)CCN1C(=O)c1ccc(N2CCNCC2)nc1 ... 5.75
C[C@H]1CN(S(=O)(=O)CCCNCc2ccccc2)[C@@H](C)C[C@H]1NC(=O)c1cc(C2CC2)on1 ... 6.24
O=C(N[C@H]1CCN(S(=O)(=O)CC2CCCNC2)[C@@H](Cc2ccccc2)C1)c1cc(C2CC2)on1 (some centres unmarked) ... 5.68
C[C@@H]1CN(S(=O)(=O)N2CC[C@H](NC(=O)c3cc(C4CC4)on3)C[C@@H]2C)[C@@H](C)CN1 ... 6.31
COCC1CCCN1CCS(=O)(=O)N1[C@@H]2CC[C@H]1C[C@@H](NC(=O)c1cc(C3CC3)on1)C2 (some centres unmarked) ... 5.68
C[C@H]1CN(S(=O)(=O)CCN2CCCC2)[C@@H](C)C[C@H]1NC(=O)c1cc(C2CC2)on1 ... 5.84
O=C(N[C@@H]1C[C@H]2CC[C@@H](C1)N2S(=O)(=O)C1CCCNC1)c1cc(C2CC2)on1 (some centres unmarked) ... 5.60

-- ask Give recorded pIC50. C[C@H]1C[C@@H](NC(=O)c2cc(C3CC3)on2)CCN1S(=O)(=O)N(C)C1CCN(C)CC1
-- reply 5.97

====

// IC50 lookup, one value per entry
SYSTEM: SMYD3 (Homo sapiens (Human))
ASSAY_PROCEDURE: SMYD3 biochemical assay (SPA, 3H-SAM methylation of MEKK2 protein substrate)
RUN_PARAMETERS: read-out: SMYD3 Biochem IC50 (μM)*

Below, 2 compounds whose answers are already recorded.
CC(=O)Nc1ccc(S(=O)(=O)N2CC[C@@H](NC(=O)c3cc(C4CC4)on3)C[C@@H]2C)cc1 [compound 377] ... > 10 µM
C[C@H]1C[C@H](NC(=O)c2cc(C3CC3)on2)CCN1S(=O)(=O)c1ccccn1 [compound 286] ... > 10 µM

-- ask Give recorded IC50. CCOC(=O)CS(=O)(=O)N1CC[C@@H](NC(=O)c2cc(C3CC3)on2)C[C@@H]1C [compound 245]
-- reply > 10 µM

====

SYSTEM: SMYD3 (Homo sapiens (Human), UniProt Q9H7B4)
ASSAY_PROCEDURE: SMYD3 cell assay (Trimethyl-MEKK2 In-Cell Western in 293T/17 cells)
Assay type: cell-based
RUN_PARAMETERS: read-out: SMYD3 Cell IC50*
READOUT_KIND: IC50 (µM)
Report only the number, with the unit µM understood.

CN1CCC[C@H](S(=O)(=O)N2[C@@H]3CC[C@H]2C[C@@H](NC(=O)c2cc(C4CC4)on2)C3)C1 [compound 952] ... 0.281
CC1CN(S(=O)(=O)N2[C@@H]3CC[C@H]2C[C@@H](NC(=O)c2cc(C4CC4)on2)C3)C(C)CN1C (stereo partly drawn) [compound 941] ... 0.341
CN(CCCO)C1CCN(S(=O)(=O)N2[C@@H]3CC[C@H]2C[C@@H](NC(=O)c2cc(C4CC4)on2)C3)CC1 [compound 834] ... 0.0487
O=C(N[C@H]1C[C@H]2CC[C@@H](C1)N2S(=O)(=O)N1CCC(NCCCN2CCCC2)CC1)c1cc(C2CC2)on1 [compound 868] ... 0.31
C[C@H](NC1CCN(S(=O)(=O)N2CC[C@H](NC(=O)c3cc(C4CC4)on3)C[C@@H]2C)CC1)c1ccccc1 [compound 905] ... 0.331

-- ask Give recorded IC50. C[C@H]1C[C@@H](NC(=O)c2cc(C3CC3)on2)CCN1S(=O)(=O)C[C@@H]1CCC[C@@H](N)C1 [compound 819]
-- reply 0.124

-- ask Give recorded IC50. C[C@H]1C[C@@H](NC(=O)c2cc(C3CC3)on2)CCN1S(=O)(=O)CC[C@H]1CCNC1 [compound 858]
-- reply 0.172

-- ask Give recorded IC50. O=C(N[C@H]1C[C@H]2CC[C@@H](C1)N2S(=O)(=O)C[C@H]1CCCN1)c1cc(C2CC2)on1 [compound 956]
-- reply 0.733

-- ask Give recorded IC50. CCNC1CCN(S(=O)(=O)N2[C@@H]3CC[C@H]2C[C@@H](NC(=O)c2cc(C4CC4)on2)C3)CC1 [compound 865]
-- reply 0.0902
